Measured values drawn from patent US5716958A for this set.

- target-of-assay: CCK-A (Rattus norvegicus, UniProt P30551)
- Construct: CCK-A receptors prepared from the cell membranes of rat pancreas; from tissue; host or cells: rat pancreas membranes (male rats, Japan Laboratory Animals)
- Sequence (P30551 1-444): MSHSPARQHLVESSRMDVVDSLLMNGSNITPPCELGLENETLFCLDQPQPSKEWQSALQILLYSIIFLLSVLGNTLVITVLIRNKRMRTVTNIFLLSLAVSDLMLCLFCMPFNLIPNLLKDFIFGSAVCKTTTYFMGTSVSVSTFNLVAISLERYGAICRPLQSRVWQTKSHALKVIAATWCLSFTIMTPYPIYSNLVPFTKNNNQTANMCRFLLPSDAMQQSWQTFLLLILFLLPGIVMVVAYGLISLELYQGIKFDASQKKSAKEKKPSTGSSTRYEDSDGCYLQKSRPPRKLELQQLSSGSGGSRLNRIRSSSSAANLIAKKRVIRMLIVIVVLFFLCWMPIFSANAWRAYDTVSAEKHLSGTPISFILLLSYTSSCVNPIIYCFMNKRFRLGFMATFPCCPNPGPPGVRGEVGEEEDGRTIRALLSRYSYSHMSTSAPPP
- method: Peripheral receptor (CCK-A) binding experiment, [^3 H]-CCK-8 binding inhibition
- conditions: rat pancreas homogenate, 0.2 nM [^3 H]-CCK-8, 60 minutes at 25° C; read-out: CCK-A IC50
measure: IC50

In [3]: df
Out[3]:
                                     smiles  measure  reported_result
0  O=C(N[C@@H](CSc1ncccc1C(=O)O)C(=O)N1CCN(C(c2ccc(F)cc2)c2ccc(F)cc2)CC1)c1cc2ccccc2[nH]1     IC50             6 nM
1  O=C(N[C@@H](CCc1ocnc1C(=O)O)C(=O)N1CCN(C(c2ccccc2)c2ccccc2)CC1)c1cc2ccccc2[nH]1     IC50            16 nM
2  O=C(N[C@@H](CSc1ccccc1C(=O)O)C(=O)N1CCN(C(c2ccccc2)c2ccccc2)CC1)c1cc2ccccc2[nH]1     IC50           210 nM
3  COc1ccc2[nH]c(C(=O)N[C@@H](CSc3ncccc3C(=O)O)C(=O)N3CCC(C(c4ccccc4)c4ccccc4)CC3)cc2c1     IC50            13 nM
